B1: library; numbered along this chain (parent)
chain: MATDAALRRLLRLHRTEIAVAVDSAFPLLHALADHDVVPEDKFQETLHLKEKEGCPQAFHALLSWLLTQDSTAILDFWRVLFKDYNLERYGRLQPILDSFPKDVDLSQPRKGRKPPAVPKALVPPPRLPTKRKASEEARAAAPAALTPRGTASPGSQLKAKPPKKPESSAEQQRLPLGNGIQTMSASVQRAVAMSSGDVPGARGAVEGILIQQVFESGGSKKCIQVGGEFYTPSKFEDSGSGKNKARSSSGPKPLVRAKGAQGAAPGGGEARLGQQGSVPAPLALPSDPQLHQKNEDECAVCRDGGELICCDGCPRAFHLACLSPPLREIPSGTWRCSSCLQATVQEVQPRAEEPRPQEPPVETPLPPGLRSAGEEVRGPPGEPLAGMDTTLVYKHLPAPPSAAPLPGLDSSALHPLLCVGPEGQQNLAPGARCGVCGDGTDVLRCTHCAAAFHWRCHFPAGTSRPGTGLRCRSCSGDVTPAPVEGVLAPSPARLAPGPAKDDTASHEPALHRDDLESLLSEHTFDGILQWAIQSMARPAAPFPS

# Variants of: B1
# ASSAY TEXT: AIRE transcriptional activation functional score (insulin promoter-GFP; nonsense median 0, synonymous median 1) (normalised score); higher = higher AIRE activity (more reporter activation)
# CONDITION: with insulin promoter-GFP reporter in HEK293
AIRE transcriptional activation functional score values for the variants below.
Respond numerically, and do not add a unit to the figure.

See these solved cases before continuing.
L7M = 0.507
Y85Q = -2.11
H319L = 0.424

Requested read-out: AIRE transcriptional activation functional score. Entry: V256D 0.705

Report AIRE transcriptional activation functional score for L128R please. 0.525

What measured AIRE transcriptional activation functional score goes with Q346Y ? 0.906

Look up AIRE transcriptional activation functional score for this variant: A496E 0.99

# query: AIRE transcriptional activation functional score of entry L32G -0.111
